Item-by-item account of relative viability
# Test system: HCC-44
# assayName: relative viability (nuclei count vs DMSO), 5 days (fraction); higher = more cells survive
# particulars: first compound 0.8 µM
// print number alone

C=C1C(=O)O[C@@H](CCCCCCCC)[C@@H]1C(=O)O [C-75] + NC(=O)Nc1cc(-c2cccc(F)c2)sc1C(=O)N[C@H]1CCCNC1 [AZD7762] (partner 0.2 µM) :: 0.999
C=C1C(=O)O[C@@H](CCCCCCCC)[C@@H]1C(=O)O [C-75] + CC(=O)c1c(C)c2cnc(Nc3ccc(N4CCNCC4)cn3)nc2n(C2CCCC2)c1=O [Palbociclib] (partner 0.5 µM) :: 1.02

Let's switch to this molecule now.
Exam item: Give its relative viability value. Item: Oc1nc(-c2ccc(C(F)(F)F)cc2)nc2c1CSCC2 [XAV939] + CC(=O)c1c(C)c2cnc(Nc3ccc(N4CCNCC4)cn3)nc2n(C2CCCC2)c1=O [Palbociclib] (partner 0.5 µM)
Marked response: 0.888
